Values compiled from the supplement of paper PMC9170038.

System: MS2 coat protein
Assay Info: apparent KD of MS2 coat protein; designed switch direction (-1 OFF switch, 1 ON switch): -1; higher = weaker reporter binding
Test Settings: Eterna round: R95; input ligand: none
Reported Property: apparent KD of MS2 coat protein (nM)
Give the value in nM but do not write nM after it.

Completed entries (count: 4):
[
  {
    "Item Sequence": "UUUAGUUCAGGAUAUGUAGAUUUUAACAUGAGGAUCACCCAUGUAGAUCCUGAAUUAACUACAGAAGGGAACAUUG [Exclusion 5: 2:b] (puzzle: Exclusion 5)",
    "apparent KD of MS2 coat protein (nM)": 16.5
  },
  {
    "Item Sequence": "GAGUGACAUGAGGAUCACCCAUGUGAGGAUAUCGGACGGACCAAAUUAACAACCGCCGCGAGAAGGCACAUCGG [Exclusion 1 V21] (puzzle: Exclusion 1)",
    "apparent KD of MS2 coat protein (nM)": 129
  },
  {
    "Item Sequence": "GUAAAGUGAGGAUAUGGUAAAUUAAUUAUUAAUUAAUUAAUCCAGAAGGCACAUGAGGAUCACCCAUGUUAAUG [Mat - Exclusion 4 - D89] (puzzle: Exclusion 4)",
    "apparent KD of MS2 coat protein (nM)": 34.5
  },
  {
    "Item Sequence": "AUGAGGUUAGGAUAUACAUGAGGAUCACCCAUGUUGAAAGGUUAGAUAGGCGAAGAUGGUAGAAGGAACAAAGA [JR_Exclu3_Sub054] (puzzle: Exclusion 3)",
    "apparent KD of MS2 coat protein (nM)": 43.9
  }
]

# input sequence: CAUGGAACAUAGGAUAUCUCGCGGCUAGACUGCAGAGAAGGAUGUACAUGAGGAUCACCCAUGUAUGAUCCAGU [Leisceza] (puzzle: Exclusion 6) ; wanted: its apparent KD of MS2 coat protein
17.3

---

Tested on: K4 kissing-loop RNA reporter;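 further: bound reporter read as fluorescence of individual clusters on recovered sequencing chips by microscopy, with normalized cluster intensities fitted with a binding model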
Assay Info: apparent KD of K4 kissing-loop reporter; higher = weaker reporter binding
Test Settings: Eterna round: R107; input ligand: tryptophan 2.4 mM
Reported Property: apparent KD of K4 kissing-loop reporter (nM)
Give the value in nM but do not write nM after it.

Completed entries (count: 3):
[
  {
    "Item Sequence": "AAUUCUUAUCUUAGUUGAUUUCUAAUUAAACGAGGACCGGUACGGCCGCCACUCGGUUAUGAGUGAUGUUCAUGGAAUUACAUAA [JR_SSTryptoA_Sub019]",
    "Experimental System": "K4 kissing-loop RNA reporter",
    "Reported Property": "apparent KD of K4 kissing-loop reporter",
    "Result Value": 169
  },
  {
    "Item Sequence": "AAUUUAUUAUCUGAUACCAGACUUUUUCUUGUAUAUAAGUCAAGUGAUGUUUGACUUUUAGUCCCUUGGCAGCAGUAUUUUUUAA [JR_Nu_SSTheophyB_Sub027]",
    "Experimental System": "K4 kissing-loop RNA reporter",
    "Reported Property": "apparent KD of K4 kissing-loop reporter",
    "Result Value": 155
  },
  {
    "Item Sequence": "UGGAGUUGACGAAAAGUCAACUCCUGAGAAGGAGCGCACGAAAGUGCAGGUAGGUCGCUCUACCAGUGAUGUUGGUACUUAAUAA [#OpenEnded 6]",
    "Experimental System": "K4 kissing-loop RNA reporter",
    "Reported Property": "apparent KD of K4 kissing-loop reporter",
    "Result Value": 84.5
  }
]

# input sequence: AGCAGUCACUCGAAAACCAUCGAAGAUGGACGAGGACCGGUACGGCCGCCACUCGGAGUGAUGUUCCGAAGACUGCAAAAUAAAA [#SwitchBubble 16] ; wanted: its apparent KD of K4 kissing-loop reporter
435

Try the sequence GGAUAGGAUAGAGGAUAUGGGUUAGGCAAGAAUAACUUGUCUAGUAAAUCCAUGAGGAGUGAUGUUCCAGAAGGCUGUCCUAUCG [MatMod 4 - Jieux - Exclusion - FMN B]
98.3

Try the sequence GCUAAGUGAUGUUUAUGCCGCCGACCGGAUACCAGCUACUAGGCAAGCCCUUGGCAGCCGCUAUGUGACCGAUCAUUAGUUAUGU [theeternabot_exclusion_KL_Theo_A_6]
682

---

Test system: MS2 coat protein
Assay Info: apparent KD of MS2 coat protein, switch OFF state (with FMN for OFF switches, without FMN for ON switches); designed switch direction (-1 OFF switch, 1 ON switch): -1; higher = weaker reporter binding
Test Settings: FMN input: 0 or 200 uM; Eterna round: R93 (includes R88 designs)
Reported Property: apparent KD of MS2 coat protein (µM)
Give the value in µM but do not write µM after it.

[
  {
    "Item Sequence": "ACAGUUACAGGAUAUACAAAGGUAACUUCAAAGAAAACUCUACAUGAGGAUCACCCAUGUAGAAGGGUAACUGA [Ex2 Design 200 (probably): Random 17]",
    "apparent KD of MS2 coat protein [µM]": 0.0182
  },
  {
    "Item Sequence": "AAGAAAGGAGGAUAUACAAGAAAGAAAGAAAAGAAAAGAAAACAUGAGGAUCACCCAUGUAGAAGGCCUUAGAA [EteRNA is fun!]",
    "apparent KD of MS2 coat protein [µM]": 0.0178
  }
]

Then this sequence:
# input sequence: AAGAACUGAGGAUAUACACAAGAAAAGAAAAGAAAGAAAGAACAUGAGGAUCACCCAUGUAGAAGGCGGAAGAA [Merhotepre Sobekhotep V] ; wanted: its apparent KD of MS2 coat protein
0.0265

---

Tested on: MS2 coat protein
Assay Info: apparent KD of MS2 coat protein; designed switch direction (-1 OFF switch, 1 ON switch): 1; higher = weaker reporter binding
Test Settings: input ligand: microRNA oligo, concentration not stated
Item-by-item account of apparent KD of MS2 coat protein
Give the value in nM but do not write nM after it.

Completed entries (count: 5):
[
  {
    "Item Sequence": "CUGAGCGAUCGAGGAUAUCACGUCGAAUAGACGUGAGAAGGCGAUCAUAACAUGAGGAUCACCCAUGUAUUACAUGAAGCUCAG [SSNG1/4-A1] (Eterna round: R96, puzzle: Same State NG 1)",
    "Reported Property": "apparent KD of MS2 coat protein",
    "Result Value": 10.5
  },
  {
    "Item Sequence": "GCUUCGGCGGUAGGAUAUCUAGGAUAUGGGAAAGACUAAGUCUGUAGGUCACCUAACCCAGAAGGAGAGAAGGACAGGUUCGCC [pwkr ssNG2 2FMN + F9.35] (Eterna round: R96, puzzle: Same State NG 2)",
    "Reported Property": "apparent KD of MS2 coat protein",
    "Result Value": 1.71
  },
  {
    "Item Sequence": "GUUACAUGAGGAUCACCCAUGUAUGUGUGGGAGUAAGUGUCUUAGGAUAUCUAGUAGUUAAUUUAAGAGAAGGAAGAUUGUUGU [JMF's solution 55] (Eterna round: R96, puzzle: Same State NG 3)",
    "Reported Property": "apparent KD of MS2 coat protein",
    "Result Value": 81.9
  },
  {
    "Item Sequence": "AUUAUUAAUGCAGGAUAUGAUUAACAUGAGGAUCACCCAUGUGGUGUUGUGAGUAAGGAGAGUGAUCAGAAGGGCAUUUUGUUU [JMF's solution 12] (Eterna round: R96, puzzle: Same State NG 2)",
    "Reported Property": "apparent KD of MS2 coat protein",
    "Result Value": 526
  },
  {
    "Item Sequence": "CGCCAGAGAGCAGGAUAUGGGCCACGGCCUAAGGGCUGUGAACUCACAUGAGGAUCACCCAUGUCCCAGAAGGGCUCCUGGCUA [Temabeanan] (Eterna round: R96, puzzle: Same State NG 2)",
    "Reported Property": "apparent KD of MS2 coat protein",
    "Result Value": 1020
  }
]

# input sequence: UUUAGUUGCGGGCAGGAUAUGUGUUAAAAUACAUGAGGAUCACCCAUGUGCGGGUAUAACACCCGACAGAAGGGCCAAUCGCGAC [Laonerce - 2] (Eterna round: R96, puzzle: Same State 2) ; wanted: its apparent KD of MS2 coat protein
44.2

Try the sequence AUGAAGAAUUAAGGAUAUUGAAUACAUAUGUUUAACAUGAGGAUCACCCAUGUGGGUUGCGGUAUCGAGAAGGUAAAAUAAUAG [Mat - same State NG 2 - JL mod - D91] (Eterna round: R96, puzzle: Same State NG 2)
79.4

Try the sequence CAAGAAAACGCAGGAUAUACUCGGGCUACCCGAGUAGAAGGGUGACACAUGAGGAUCACCCAUGUACAUAGCAUUAGCUAUGGA [Onedve] (Eterna round: R96, puzzle: Same State NG 1)
827

Try the sequence GUGGUCAGACAUGAGGAUCACCCAUGUGGAAUAAAUAACGGACAGGAUAUAUAAUAUAGGAUAUAGUAGAAGGGUUGAUUGGUG (Eterna round: R96, puzzle: Same State NG 3)
57.7
